test: yeast display, Sf9 membrane polyspecificity reagent, FACS + sequencing; frameworks hold sequencing errors
MEASURED_QUANTITY: polyreactivity (PSR sort gate)

[[record]]
sequence_text = "QVQLVESGGGLVQAGGSLRLSCAASGGIFAYYVMGWYRQAPGKERELVASISSGGGTYYADSVKGRFTISRDNAKNTVYLQMNSLKPEDTAVYYCAARWLRYVYPDGHLFWYDYWGQGTQVTVSS"
value_reported = "high polyreactivity"

[[record]]
sequence_text = "QVQLVESGGGLVQAGGSLRLSCAASGSTFRFNAMGWYSQAPGKERELVAAITGIGGITYYADSVKGRFTISRDNAKNTVYLQMNSLKPEDTAVYYCNAVAARYSVRNGYSTHYDYWGQGTQVTVSS"
value_reported = "high polyreactivity"


----------
assay: yeast display, Sf9 membrane polyspecificity reagent, FACS + sequencing; frameworks hold sequencing errors
MEASURED_QUANTITY: polyreactivity (PSR sort gate)

[[record]]
sequence_text = "QVQLVESGGGLVQAGGSLRLSCADSGRTFKSYAMGWYRQAPGKERELVAAISSSGGRTFYADSVKGRFTISRDNAKNTVYLQMNSLKPEDTAVYYCNARGFYRGYTYYYWGQGTQVTVSS"
measured_quantity = "polyreactivity (PSR sort gate)"
value_reported = "high polyreactivity"

[[record]]
sequence_text = "KVQLVESGGGLVQAGGSLLLSCAASVSNYTLNAMGWYRQAPGKERVLVAAISLSGGSTYYADSVKGRFTISRDNAKNTVYLQMNSLKPEDTAVYYCNTPPSRYVRYGIYRYDYWGQGTQVTVSS"
measured_quantity = "polyreactivity (PSR sort gate)"
value_reported = "high polyreactivity"

[[record]]
sequence_text = "HVQLVESGGGLVQAGGSLRLSCAASGRIFNDYSMGWYRQAPGKERELVAAIRRRGDRTYYADSVKGRFTISRDNAKNTVYLQMNSLKPEDTAVYYCAKSQSAKGGYDYWGQGTQVTVSS"
measured_quantity = "polyreactivity (PSR sort gate)"
value_reported = "high polyreactivity"

[[record]]
sequence_text = "QVQLVEAGGGLVLAGGSLRLSCAASGIIFVSYAMGWSRQAPGKERELVASISWSGGRTYYADSVKARFTISRDNAKNTVYLQMNSLKPEDTAVYFCAAAYRTRSGVRRYPWFNYWGQGTQVTVSS"
measured_quantity = "polyreactivity (PSR sort gate)"
value_reported = "high polyreactivity"


----------
experiment: yeast display, Sf9 membrane polyspecificity reagent, FACS + sequencing; frameworks hold sequencing errors
MEASURED_QUANTITY: polyreactivity (PSR sort gate)

[[record]]
sequence_text = "QVQLVESGAGLVQAGGSLRISCAASGRIFYVYAMGWYRQAPGKEREFVASISWSGGSTYYADSVKGRFTISRDNANNTVLLQMNSLKPADTAVYYCNARAFTQRYDYWGQGTQVTVSS"
value_reported = "low polyreactivity"

[[record]]
sequence_text = "QVQLVESGGGLVQAGGSLRLSCAASGRTFSAYAMGWYRQAPGKERELVAAITLSVGSTYYADSVKGRFTISRDNAKNTVYLQMNSLKPEDTAVYYCNKYKKGEGGITIVRFDYWGQGTQVTVSS"
value_reported = "low polyreactivity"

[[record]]
sequence_text = "QVQLVESGGGLVQAGGSLRLSCAASGRTFGQYAMGWSRQAPGKERELVAAISARGASTYYADSVKGRFTISRDTAKNTVYLQMNSLKPEDTAVYYCNKYGRTSSTPLFYYWGQGTQVTVSS"
value_reported = "high polyreactivity"

[[record]]
sequence_text = "QVQLVESGGGLVQAGGSLRLSCAASGNTFRWYDMGWYRQAPGKERELVAGITRVGCTNYADSVKGRFTISRDNAKNTVYLQMNSLKPEDTAVYYCAARPRWFYGYPYGIIGYDYWGQGTQVTVSS"
value_reported = "high polyreactivity"

[[record]]
sequence_text = "QVQLVASGGGLVQAGGSLRISCAASGSIIYYYAMGWYRHAPRKERELVAAISTSSGRTYYADSVKGRFTISRDNAKNTVYLQMNSLKPEDTAVYYCANEIPFTRYTWPRYNYWGQGTQVTVSS"
value_reported = "high polyreactivity"

[[record]]
sequence_text = "QVQLVESGGGLVQAGGSLRLSCAASGRTFDGYDMGSYRQAPGKERELVAAINVVGGSTYYADSVKGRFTISRDNAKNTVYLLMNSLKPEDTEVYYCAARRSYLTNFRRYYKMDYWGQGTQVTVAS"
value_reported = "low polyreactivity"

[[record]]
sequence_text = "QEQLVESGGGLVQAGGSLRLSCAASGFIFPGYTMGWYRQAPGKERELVAAISRGSSTFYADSVKGRFTISRDNAKNTVYLQMNSLKPEDTAFYYCNTRVYAITLYDYWGQGTQVTVSS"
value_reported = "low polyreactivity"

[[record]]
sequence_text = "QVQLVESGGGLVQAGGSLRLSCAASGFTFPRYAMGWYREAPGKEREFVAAINRGGSTYYADSVKGRFTISRDNAKNTVYLQMNSLKPEDTAVYYCITDRKNRPSPGDYYWGQGTQVTVSS"
value_reported = "low polyreactivity"

[[record]]
sequence_text = "QVQLVESGGGLVQEGGSLRLSCAASGSTFGGYAMGWYRQAPGKERELVAAISGSGVRTYYADSVKGRFTISRDNAKYSVYLQMNSLKPEDTAVYYCAKRVRYPGDRYYYWGQGSQVTVSS"
value_reported = "high polyreactivity"

[[record]]
sequence_text = "QVQLVESGGGLVQAGGSLRLSCAASGRIFYRNAMGWYRQAPGKERELVAAISYSGGRTYYADSVKGRFTISRDNAKNTVYLQMNSLKPEDTAVYYCAARYAWGYVDPGDYWGQGTQVTVSS"
value_reported = "high polyreactivity"

[[record]]
sequence_text = "QVQLVESGGGLVQAGGSLRLSCAASGRTFPLYAMGWYRQAPGKERELVAAISWSGGSTYYADSVKGRFTISRDHAKNTVYLQMNSLKPEDTAVYYCNTLGRLTGRYGWSSKYYYWGQGTQVTVSS"
value_reported = "high polyreactivity"

[[record]]
sequence_text = "QVQLVESGGGLVQAGGSLRLSCAASGSTFPTNTMGWYRQAPGKERELVAAITGGGSTYYADSVKGRFTISRDNAKNTVYLQMNSLKPEDTAVYYCAADDSWFYYGYGYWGQGTQVTVSS"
value_reported = "low polyreactivity"

[[record]]
sequence_text = "QVQLVESGGGLVQAGCSLRLSCAASGSTFRYYAMGWYRQAPGKERELVAAINRSGGSTYYADSVKGRFTISRDNAKNTVYLQMYSLKPEDTAVYYCAAPWARHYSNPDDYWGQGTQVTVSS"
value_reported = "high polyreactivity"

[[record]]
sequence_text = "QVQLVESGGGLVQAGGSLRLSCDASGGTITNYAMGWYRQAPGKERELVAAITDSGATTYYADSVKGRFTISLVTAKNPVSLQMNSLKPEDTAVYDCNAELDLYTYFDYWGQGTQVTVSS"
value_reported = "low polyreactivity"

[[record]]
sequence_text = "RVQLVESGGGLVQAGGSLRLSCAASGFTFRDYAMGWYRQAPGKERELVARIRIRDSNTYYADSVKGRFTISRDNAKNTVYLQMNSLKPEDTAVYYCAVVANYVYSKYDYWGQGTQVTVSS"
value_reported = "low polyreactivity"

[[record]]
sequence_text = "QVQLVESGGGLVQAGGSLRLSCAASGSTFVNNAMGWYRQAPGTERELVAAIRSSDGRTYYADSVKGRFTISRDNAKNTVYLQMNSLKPEDTAVYYCATAVGTKYRTRIFEYYYWGQGTQVTVSS"
value_reported = "high polyreactivity"

[[record]]
sequence_text = "QVQLVESGGGLVQAGGSLRLSCAASGSIFKKYAMGWYRQAPGKERELVAAISSGGGSTYYADSVKGRFTISRDNAKNTVYLQMNSLKPEDTAVYYCNARIQYFKYRGYEYWGQGTQVTVSS"
value_reported = "high polyreactivity"

[[record]]
sequence_text = "QVQLVESRGGLVQAGGSLRLSCAASGITFILYAMGCYRQAAWKERELVASITSGGSTDYADSVKERFTISGDNAKNTVYLQMNSLKPEDTAVYYCNAAARGSSFDYWGQGTQVTVSS"
value_reported = "low polyreactivity"

[[record]]
sequence_text = "QVQLVESGGGLVQAGGSLRLSCAASGSIFDGYAMGWYRQAPGKEREFVASIRFSTGRTYYADSVKGRFTISRDNAKNTVYLQMNSLKPEDTAVYYCNAPQGFVWRYSSWGPYDYWGQGTQVTVSS"
value_reported = "high polyreactivity"

[[record]]
sequence_text = "QGQLVESGGGLVQAGGSLRLSCAASGFTFYKNTMGWYRQAPGKERELVAAISSSGSSTYYADSVKGRFTISRDNAKNTVYLQMISLKPEDTAVYYCAACSFAYHDDYWGQGTQVTVSS"
value_reported = "high polyreactivity"

[[record]]
sequence_text = "QVQLVESGGGLVQAGGSLRLSCAASGRTFSYNTMGWYRQAPGKVSELVAAISTGVSTYYADSVKGRFTISRDNAKNTVYLQMNSLKPEDTEVYYCARGGRPRWYPPHNYWGQGTQLTVSS"
value_reported = "low polyreactivity"

